assayed.system: T1, hIL-4Rα on cells (human, UniProt P24394 26-825)
T1 sequence: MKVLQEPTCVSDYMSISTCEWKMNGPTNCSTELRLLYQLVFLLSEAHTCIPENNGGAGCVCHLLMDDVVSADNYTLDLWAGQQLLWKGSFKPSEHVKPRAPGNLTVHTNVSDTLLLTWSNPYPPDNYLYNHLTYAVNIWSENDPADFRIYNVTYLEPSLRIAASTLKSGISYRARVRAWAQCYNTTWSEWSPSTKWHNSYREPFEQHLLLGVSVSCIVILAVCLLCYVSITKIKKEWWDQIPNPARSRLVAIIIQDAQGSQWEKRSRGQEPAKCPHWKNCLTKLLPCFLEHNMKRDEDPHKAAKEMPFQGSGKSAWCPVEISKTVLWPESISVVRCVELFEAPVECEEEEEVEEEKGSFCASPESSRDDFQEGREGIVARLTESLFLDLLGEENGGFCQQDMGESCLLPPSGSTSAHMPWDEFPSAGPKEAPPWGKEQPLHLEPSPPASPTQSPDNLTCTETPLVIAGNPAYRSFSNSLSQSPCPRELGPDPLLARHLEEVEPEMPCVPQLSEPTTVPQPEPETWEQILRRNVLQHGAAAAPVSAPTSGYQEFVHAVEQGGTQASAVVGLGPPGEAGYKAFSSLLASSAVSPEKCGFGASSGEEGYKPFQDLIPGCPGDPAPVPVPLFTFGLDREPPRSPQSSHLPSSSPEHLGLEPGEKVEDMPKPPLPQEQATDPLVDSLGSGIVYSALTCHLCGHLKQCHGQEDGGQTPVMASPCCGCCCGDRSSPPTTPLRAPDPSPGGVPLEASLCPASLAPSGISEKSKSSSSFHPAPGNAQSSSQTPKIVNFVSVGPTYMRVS
test: cell-based or functional assay
value.type: Relative Inhibition of IL-4 induced TF-1 Proliferation IC50

Answered examples (2):
[[record]]
binder = "Construct 26 (mAb434) (antibody, IgG4, V domains shown, VH/VL only) VH: EVQLVESGGGLEQPGGSLRLSCAGSGFTFRDFAMTWVRQAPGKGLEWVSSISGGGGSTYYADSVKGRFTISRDNSKNTLYLQMNSLRAEDTAVYYCAKDRLSIAVRPRYYGLDVWGQGTTVTVSS VL: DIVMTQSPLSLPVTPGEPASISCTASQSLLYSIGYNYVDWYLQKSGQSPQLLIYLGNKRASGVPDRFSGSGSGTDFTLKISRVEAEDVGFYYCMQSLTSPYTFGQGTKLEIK"
result = "0.7 relative to dupilumab"

[[record]]
binder = "Construct 9 (mAb418) (antibody, IgG4, V domains shown, VH/VL only) VH: EVQLVESGGGLEQPGGSLRLSCAGSGFTFTDFAMTWVRQAPGKGLEWVSSISGSGGNIYYADSVKGRFTISRDNSKNTLYLQMNSLRAEDTAVYYCAKDRLSVTVRPRYYGLDVWGQGTTVTVSS VL: DIVMTQSPLSLPVTPGEPASISCRSSQSLLYSIGKNYVDWYLQKSGQSPQLLIYLGNNRATGVPDRFSGSGSGTDFTLKISRVEAEDVGFYYCMQALGSPYTFGQGTKLEIK"
result = "0.503 relative to dupilumab"


Problem: What Relative Inhibition of IL-4 induced TF-1 Proliferation IC50 value was documented for this binder, Construct 21 (mAb429) (antibody, IgG4, V domains shown, VH/VL only) VH: EVQLVESGGGLEQPGGSLRLSCAGSGFTFRTYAMTWVRQAPGKGLEWVSSISGSGGNIYYADSVKGRFTISRDNSKNTLYLQMNSLRAEDTAVYYCAKDRVSIYVRPRYYGLDVWGQGTTVTVSS VL: DIVMTQSPLSLPVTPGEPASISCTASQSLLYSIGYNYVDWYLQKSGQSPQLLIYLGSKRASGVPDRFSGSGSGTDFTLKISRVEAEDVGFYYCMQSLTSPYTFGQGTKLEIK ?
Result: 0.509 relative to dupilumab

Problem: Note, next up: Construct 18 (mAb426) (antibody, IgG4, V domains shown, VH/VL only) VH: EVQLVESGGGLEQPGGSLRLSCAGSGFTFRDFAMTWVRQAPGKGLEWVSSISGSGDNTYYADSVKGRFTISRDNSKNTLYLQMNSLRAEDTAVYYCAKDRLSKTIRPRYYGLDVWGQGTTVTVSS VL: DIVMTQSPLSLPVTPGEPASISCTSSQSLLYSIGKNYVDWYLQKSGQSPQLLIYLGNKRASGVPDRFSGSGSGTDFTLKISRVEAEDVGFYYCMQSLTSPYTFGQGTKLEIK
Result: 0.626 relative to dupilumab

Problem: Note, next up: Construct 22 (mAb430) (antibody, IgG4, V domains shown, VH/VL only) VH: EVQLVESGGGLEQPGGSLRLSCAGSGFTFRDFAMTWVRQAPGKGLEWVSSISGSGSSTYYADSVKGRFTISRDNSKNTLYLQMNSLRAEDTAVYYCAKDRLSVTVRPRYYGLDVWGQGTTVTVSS VL: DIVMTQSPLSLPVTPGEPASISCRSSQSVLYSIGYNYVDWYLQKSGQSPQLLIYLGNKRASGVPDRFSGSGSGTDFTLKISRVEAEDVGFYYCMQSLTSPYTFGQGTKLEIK
Result: 0.746 relative to dupilumab
